protocol-description: Phase 2a study plasma pharmacokinetics
Assay type: in vivo, human
run-parameters: human, in vivo; 50 mg QD group, Day 1 after 100 mg loading dose, C-QTc population
measured-parameter: Cmax (ng/mL)

CCC(=O)C(C[C@H](C)N(C)C)(c1ccccc1)c1ccccc1 ... 338

----------
protocol-description: in vitro
run-parameters: simulated gi fluid, Half-Life, Rep. 1-3, simulated intestinal fluid, 37° C., 10 μM
measured-parameter: half-life at 10 μM

O=C(O)CCCc1ccc(N(CCCl)CCCl)cc1 [Chlorambucil, reference compound] ... 26.2 min

----------
protocol-description: in vitro
run-parameters: simulated gi fluid, Half-Life, Mean, simulated gastric fluid, 37° C., 10 μM
Procedure: Gastrointestinal solution stability was performed along with the Caco-2 cell permeability assay study.
measured-parameter: half-life (min)

CC[C@H]1OC(=O)[C@H](C)[C@@H](O[C@H]2C[C@@](C)(OC)[C@@H](O)[C@H](C)O2)[C@H](C)[C@@H](O[C@@H]2O[C@H](C)C[C@H](N(C)C)[C@H]2O)[C@](C)(O)C[C@@H](C)C(=O)[C@H](C)[C@@H](O)[C@]1(C)O [Erythromycin, reference compound] ... 6

Source: patent US20240122878A1
